Exercise: for every item that follows, state its recorded pKi.
Tested system: μ receptors (Rattus norvegicus)
Construct: homogenates of rat cerebral cortex membrane; from tissue; host or cells: rat cerebral cortex membrane homogenate
Sequence (P33535 whole entry): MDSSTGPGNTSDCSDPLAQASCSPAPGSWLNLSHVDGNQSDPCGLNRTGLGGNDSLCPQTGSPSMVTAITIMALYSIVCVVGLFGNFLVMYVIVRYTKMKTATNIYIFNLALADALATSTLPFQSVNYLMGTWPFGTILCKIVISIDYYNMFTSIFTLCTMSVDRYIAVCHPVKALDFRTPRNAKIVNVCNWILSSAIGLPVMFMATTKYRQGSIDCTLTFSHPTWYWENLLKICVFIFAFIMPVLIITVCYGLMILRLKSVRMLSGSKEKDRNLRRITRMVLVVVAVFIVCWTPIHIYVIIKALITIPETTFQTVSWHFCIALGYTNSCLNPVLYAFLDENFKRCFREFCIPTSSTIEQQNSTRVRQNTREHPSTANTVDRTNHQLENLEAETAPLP
Test description: affinity to the μ receptors, [3H]DAMGO binding, rat cerebral cortex membrane homogenates
Scale note: pKi = -log10(concentration in M).

For CCN(CC)C(=O)C(CS)NC(=O)C1OC(OC2C=CC3C4Cc5ccc(O)c6c5C3(CCN4C)C2O6)C(O)C(O)C1O (stereo not drawn) [Example M6G-Cys-DEA, M6G-Cys-DEA] , what is its reported pKi? 9.44

Please do the same for CN1CC[C@]23c4c5ccc(O)c4O[C@H]2[C@@H](O[C@@H]2OC(C(=O)NCCS)[C@@H](O)C(O)C2O)C=CC3[C@H]1C5 (stereo partly drawn) [M6G-cysteamide] as well. 8.63

Okay, and CN1CCC23c4c5ccc(O)c4OC2C(OC2OC(C(=O)O)C(O)C(O)C2O)C=CC3C1C5 (stereo not drawn) [Example M6G, morphine-6-glucuronide] ? 7.87

###

Please respond with reported Ki for every item in the list.
Tested system: κ receptors (Cavia porcellus, UniProt P41144)
Construct: homogenates of guinea-pig cerebellum membrane; from tissue; host or cells: guinea-pig cerebellum membrane homogenate
Sequence (P41144 whole entry): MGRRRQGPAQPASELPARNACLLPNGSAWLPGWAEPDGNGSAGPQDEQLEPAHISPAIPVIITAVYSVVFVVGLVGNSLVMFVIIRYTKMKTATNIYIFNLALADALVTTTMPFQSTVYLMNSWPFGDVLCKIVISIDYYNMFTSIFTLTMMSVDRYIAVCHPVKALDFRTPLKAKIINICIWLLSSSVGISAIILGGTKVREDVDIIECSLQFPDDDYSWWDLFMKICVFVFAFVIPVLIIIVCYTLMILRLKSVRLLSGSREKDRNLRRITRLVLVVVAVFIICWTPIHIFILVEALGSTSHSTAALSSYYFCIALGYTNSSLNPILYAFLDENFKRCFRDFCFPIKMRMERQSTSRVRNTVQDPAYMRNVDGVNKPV
Test description: affinity to the κ receptors, [3H]U 69593 binding, guinea-pig cerebellum membrane homogenates
Condition summary: Affinity to the K receptors (Ki), 0.7 nM [3H]U 69593, 80 minutes at 22° C.
// return numeric value only (unit: nM, not printed)

Consider the molecule CN1CC[C@]23c4c5ccc(O)c4O[C@H]2[C@@H](O[C@@H]2O[C@H](C(=O)NCCSSCCNC(=O)[C@H]4O[C@@H](O[C@H]6C=CC7[C@H]8Cc9ccc(O)c%10c9[C@@]7(CCN8C)[C@H]6O%10)[C@H](O)[C@@H](O)[C@@H]4O)[C@@H](O)[C@H](O)[C@H]2O)C=CC3[C@H]1C5 (some centres unmarked) and give its measured Ki. 6.22

What do you have for CN1CC[C@]23c4c5ccc(O)c4O[C@H]2[C@@H](O[C@@H]2OC(C(=O)NCCS)[C@@H](O)C(O)C2O)C=CC3[C@H]1C5 (some centres unmarked) [M6G-cysteamide] ? 4.49

###

Tested system: κ receptors (Cavia porcellus, UniProt P41144)
Construct: homogenates of guinea-pig cerebellum membrane; from tissue; host or cells: guinea-pig cerebellum membrane homogenate
Test description: affinity to the κ receptors, [3H]U 69593 binding, guinea-pig cerebellum membrane homogenates
Condition summary: Affinity to the K receptors (Ki), 0.7 nM [3H]U 69593, 80 minutes at 22° C.
Can you tell me Ki for the items I'm about to list?
Express your answer in nM, writing the number without its unit.

Need Ki of CCOC(=O)C(CS)NC(=O)C1OC(OC2C=CC3C4Cc5ccc(O)c6c5C3(CCN4C)C2O6)C(O)C(O)C1O (stereo not shown) , thanks. 11.2

Please answer likewise for COC(=O)C(CS)NC(=O)C1OC(OC2C=CC3C4Cc5ccc(O)c6c5C3(CCN4C)C2O6)C(O)C(O)C1O (stereo not shown) 14

Do the same for CCN(CC)C(=O)C(CS)NC(=O)C1OC(OC2C=CC3C4Cc5ccc(O)c6c5C3(CCN4C)C2O6)C(O)C(O)C1O (stereo not shown) please 1.9

Same for CN1CCC23c4c5ccc(O)c4OC2C(OC2OC(C(=O)O)C(O)C(O)C2O)C=CC3C1C5 (stereo not shown) [Example M6G, morphine-6-glucuronide] 224
